These measurements were taken from patent US9657064B2.

Provide the recorded index of fluorescence for the entries that follow.
# System: human astrocytoma cells U251
# protocol: In vitro transduction of fluorescein-labeled CPP-OVA fusion polypeptides, flow cytometry
# Type: cell-based
# conditions: 0.9 μM, 2 h at 37° C., ratio of mean fluorescence index between cells alone and loaded cells
I only need the number, thanks.

[in] Returns the measured index of fluorescence for the input sequence. Input: REVAAAKSSENDRLRLLLK [CPP10]
[out] 4

[in] Which index of fluorescence reading was recorded for the sequence QHYREVAAAKSSEND [CPP8] ?
[out] 2

[in] Item KRYKNRVASRKSRAKFKQLLQHYREVAAAK [CPP2] has what recorded index of fluorescence?
[out] 25.1

[in] Entry under review: KRYKNRVASRKSRAKFK (CCP1) [CPP1] . Reported index of fluorescence?
[out] 4.5

----------
# Tested on: murine lymphoid cells EL4
# protocol: In vitro transduction of fluorescein-labeled CPP-OVA fusion polypeptides, flow cytometry
# Type: cell-based
# conditions: 0.9 μM, 2 h at 37° C., ratio of mean fluorescence index between cells alone and loaded cells
observation type: index of fluorescence
Quick one: just the number, no unit, thanks!

[in] For the sequence KRYKNRVASRKSRAKFKQLLQHYREVAAAK [CPP2] , what index of fluorescence is on record?
[out] 57.7

[in] Fill blank: measured index of fluorescence of the sequence QHYREVAAAKSSEND [CPP8] is ____.
[out] 2.5

[in] Dear colleague, I am looking for the recorded index of fluorescence of the following sequence: KRYKNRVASRKSRAKFK (CCP1) [CPP1]
[out] 4.8

[in] What index of fluorescence value was documented for this sequence, REVAAAKSSENDRLRLLLK [CPP10] ?
[out] 4

----------
# Tested on: murine astrocytoma cells GL261
# protocol: In vitro transduction of fluorescein-labeled CPP-OVA fusion polypeptides, flow cytometry
# Format: cell-based
# conditions: 0.9 μM, 2 h at 37° C., ratio of mean fluorescence index between cells alone and loaded cells
So I've got a bunch of sequences here, and I need their index of fluorescence values.
I only need the number, thanks.

[in] Dear colleague, I am looking for the recorded index of fluorescence of the following sequence: KRYKNRVASRKSRAKFKQLLQHYREVAAAK [CPP2]
[out] 20.8

[in] Using the record for QHYREVAAAKSSEND [CPP8] , report its index of fluorescence.
[out] 1.4

[in] Query (sequence): KRYKNRVASRKSRAKFK (CCP1) [CPP1] ; field requested: index of fluorescence
[out] 2.4

[in] Using the record for REVAAAKSSENDRLRLLLK [CPP10] , report its index of fluorescence.
[out] 1.9

----------
# Test system: human lymphoid cells K562
# protocol: In vitro transduction of fluorescein-labeled CPP-OVA fusion polypeptides, flow cytometry
# Type: cell-based
# conditions: 0.9 μM, 2 h at 37° C., ratio of mean fluorescence index between cells alone and loaded cells
Please provide measured index of fluorescence for the entries that follow.
No unit in the answer, please; the number alone is enough.

[in] Fill in: index of fluorescence of KRYKNRVASRKSRAKFKQLLQHYREVAAAK [CPP2] is ___
[out] 15

[in] Looking for the measured index of fluorescence of KRYKNRVASRKSRAKFK (CCP1) [CPP1] , can you help?
[out] 3

[in] For the sequence shown here, REVAAAKSSENDRLRLLLK [CPP10] , give the reported index of fluorescence.
[out] 3.7

[in] # query: index of fluorescence of entry QHYREVAAAKSSEND [CPP8]
[out] 1.9
